# Test context: in isopropanol, 293.15 K
Experimental readout: solubility (mole fraction)
Give the figure by itself; no unit, no explanation.

Endpoint output: solubility (mole fraction) of N[C@H](Cc1c[nH]cn1)C(=O)O . Value? 0.000369

----------
# Test context: in DMF, 318.15 K
Experimental readout: solubility (mole fraction)
// keep it numeric: no unit symbol after the value

If you can, please state the reported solubility (mole fraction) value of N[C@H](Cc1c[nH]cn1)C(=O)O . 0.29

----------
# Test context: in isobutanol, 323.15 K
Experimental readout: solubility (mole fraction)
Give the figure only, with no unit attached.

# get_value(readout='solubility (mole fraction)', item= N[C@H](Cc1c[nH]cn1)C(=O)O ) 0.00201

----------
# Test context: in water, 293.15 K
Experimental readout: solubility (mole fraction)

Given the compound N[C@H](Cc1c[nH]cn1)C(=O)O , what is its reported solubility (mole fraction)? 0.00458

----------
# Test context: in isopropanol, 303.15 K
Experimental readout: solubility (mole fraction)
Give only the figure.

If you can, please state the reported solubility (mole fraction) value of N[C@H](Cc1c[nH]cn1)C(=O)O . 0.000598

----------
# Test context: in n-butanol, 303.15 K
Experimental readout: solubility (mole fraction)

Any idea what solubility (mole fraction) was measured for N[C@H](Cc1c[nH]cn1)C(=O)O ? 0.00105

----------
# Test context: in water, 303.15 K
Experimental readout: solubility (mole fraction)
Write the value as a bare number.

# get_value(readout='solubility (mole fraction)', item= N[C@H](Cc1c[nH]cn1)C(=O)O ) 0.00556

----------
# Test context: in DMSO, 313.15 K
Experimental readout: solubility (mole fraction)
// no unit, no text: just the number

Fill in: solubility (mole fraction) of N[C@H](Cc1c[nH]cn1)C(=O)O is ___ 0.0308

----------
# Test context: in isopropanol, 308.15 K
Experimental readout: solubility (mole fraction)

Record request: solubility (mole fraction) value, item N[C@H](Cc1c[nH]cn1)C(=O)O 0.000759

----------
# Test context: in water, 323.15 K
Experimental readout: solubility (mole fraction)
# respond with the number and nothing more

Give the measured solubility (mole fraction) of N[C@H](Cc1c[nH]cn1)C(=O)O . 0.00878

----------
# Test context: in isobutanol, 303.15 K
Experimental readout: solubility (mole fraction)
Lab note: jot down the number only; don't add units.

Can you share its solubility (mole fraction)? I mean this compound: N[C@H](Cc1c[nH]cn1)C(=O)O 0.00085

----------
# Test context: in ethanol, 298.15 K
Experimental readout: solubility (mole fraction)
Simply state the number, no unit and no words.

Data request, read-out solubility (mole fraction), for N[C@H](Cc1c[nH]cn1)C(=O)O 0.000329

----------
# Test context: in DMF, 303.15 K
Experimental readout: solubility (mole fraction)
Simply state the number, no unit and no words.

Requested field: solubility (mole fraction). Item: N[C@H](Cc1c[nH]cn1)C(=O)O 0.201

----------
# Test context: in 1,4-dioxane, 308.15 K
Experimental readout: solubility (mole fraction)

Looking for the measured solubility (mole fraction) of N[C@H](Cc1c[nH]cn1)C(=O)O , can you help? 0.0117

----------
# Test context: in water, 328.15 K
Experimental readout: solubility (mole fraction)
Answer with the value's number alone.

Consider the molecule shown here: N[C@H](Cc1c[nH]cn1)C(=O)O What is its recorded solubility (mole fraction)? 0.00971

----------
# Test context: in DMSO, 303.15 K
Experimental readout: solubility (mole fraction)
Reply with just the number.

Need solubility (mole fraction), item N[C@H](Cc1c[nH]cn1)C(=O)O 0.0232

----------
# Test context: in cyclohexane, 333.15 K
Experimental readout: solubility (mole fraction)

# get_value(readout='solubility (mole fraction)', item= N[C@H](Cc1c[nH]cn1)C(=O)O ) 0.00252

----------
# Test context: in isobutanol, 298.15 K
Experimental readout: solubility (mole fraction)
Would you mind answering with just the numeric figure?

Which solubility (mole fraction) is reported for this compound? N[C@H](Cc1c[nH]cn1)C(=O)O 0.000681

----------
# Test context: in ethylene glycol, 323.15 K
Experimental readout: solubility (mole fraction)
API note: the answer field is a bare number with no unit suffix.

Name the reported solubility (mole fraction) value associated with the molecule N[C@H](Cc1c[nH]cn1)C(=O)O 0.00654

----------
# Test context: in isopropanol, 323.15 K
Experimental readout: solubility (mole fraction)

// solubility (mole fraction) lookup, key: N[C@H](Cc1c[nH]cn1)C(=O)O 0.00146

----------
# Test context: in DMF, 293.15 K
Experimental readout: solubility (mole fraction)
Please state the value as a number alone, without comment.

Reported solubility (mole fraction) for N[C@H](Cc1c[nH]cn1)C(=O)O : what is it? 0.154

----------
# Test context: in ethanol, 308.15 K
Experimental readout: solubility (mole fraction)
Give the value as a plain number.

# query: solubility (mole fraction) of entry N[C@H](Cc1c[nH]cn1)C(=O)O 0.000557

----------
# Test context: in n-butanol, 328.15 K
Experimental readout: solubility (mole fraction)
// keep it numeric: no unit symbol after the value

Please report the recorded solubility (mole fraction) for N[C@H](Cc1c[nH]cn1)C(=O)O . 0.00263

----------
# Test context: in 1,4-dioxane, 318.15 K
Experimental readout: solubility (mole fraction)
The response must contain the number and no unit.

solubility (mole fraction) for N[C@H](Cc1c[nH]cn1)C(=O)O ? 0.0152

----------
# Test context: in methanol, 328.15 K
Experimental readout: solubility (mole fraction)
Give a plain numeric answer without units written out.

Fill blank: measured solubility (mole fraction) of the compound N[C@H](Cc1c[nH]cn1)C(=O)O is ____. 0.00119

----------
# Test context: in 1,4-dioxane, 298.15 K
Experimental readout: solubility (mole fraction)
Please respond with just the number, no unit label.

Which solubility (mole fraction) reading was recorded for the compound N[C@H](Cc1c[nH]cn1)C(=O)O ? 0.00864

----------
# Test context: in n-butanol, 293.15 K
Experimental readout: solubility (mole fraction)
# answer = number (no unit)

I would be grateful if you could share the reported solubility (mole fraction) for N[C@H](Cc1c[nH]cn1)C(=O)O . 0.0007

----------
# Test context: in NMP, 303.15 K
Experimental readout: solubility (mole fraction)
Answer with a bare number; do not write a unit.

Given N[C@H](Cc1c[nH]cn1)C(=O)O , state its recorded solubility (mole fraction). 0.0859

----------
# Test context: in isobutanol, 313.15 K
Experimental readout: solubility (mole fraction)
Give the value as a plain number.

Would you kindly share the measured solubility (mole fraction) for N[C@H](Cc1c[nH]cn1)C(=O)O ? 0.00129

----------
# Test context: in cyclohexane, 313.15 K
Experimental readout: solubility (mole fraction)
Lab note: record the figure alone, no unit after it.

What value of solubility (mole fraction) has been recorded for this entry: N[C@H](Cc1c[nH]cn1)C(=O)O 0.00111

----------
# Test context: in methanol, 313.15 K
Experimental readout: solubility (mole fraction)
// return just the number, without any unit appended

// query solubility (mole fraction) value for entry N[C@H](Cc1c[nH]cn1)C(=O)O 0.000562

----------
# Test context: in isobutanol, 318.15 K
Experimental readout: solubility (mole fraction)

Give its solubility (mole fraction) value. Item: N[C@H](Cc1c[nH]cn1)C(=O)O 0.00156

----------
# Test context: in isobutanol, 293.15 K
Experimental readout: solubility (mole fraction)
Quick one: just the number, no unit, thanks!

If you can, please state the reported solubility (mole fraction) value of N[C@H](Cc1c[nH]cn1)C(=O)O . 0.000546

----------
# Test context: in methanol, 293.15 K
Experimental readout: solubility (mole fraction)
Just the number.

Any idea what its solubility (mole fraction) is? The compound is N[C@H](Cc1c[nH]cn1)C(=O)O 0.00019

----------
# Test context: in cyclohexane, 308.15 K
Experimental readout: solubility (mole fraction)
Answer field: number only, no words.

# lookup: solubility (mole fraction) of N[C@H](Cc1c[nH]cn1)C(=O)O 0.000897

----------
# Test context: in methanol, 333.15 K
Experimental readout: solubility (mole fraction)
// keep it numeric: no unit symbol after the value

Quick one: solubility (mole fraction) of N[C@H](Cc1c[nH]cn1)C(=O)O ? 0.00156

----------
# Test context: in NMP, 293.15 K
Experimental readout: solubility (mole fraction)
Keep it simple and answer with nothing but the number.

Look at this compound and give its reported solubility (mole fraction). N[C@H](Cc1c[nH]cn1)C(=O)O 0.0656

----------
# Test context: in DMSO, 308.15 K
Experimental readout: solubility (mole fraction)

Dear colleague, I am looking for the recorded solubility (mole fraction) of the following compound: N[C@H](Cc1c[nH]cn1)C(=O)O 0.0267

----------
# Test context: in 1,4-dioxane, 333.15 K
Experimental readout: solubility (mole fraction)
Format: numeric value only, no unit, no commentary.

Give its solubility (mole fraction) value. Item: N[C@H](Cc1c[nH]cn1)C(=O)O 0.0245

Data origin, for the record: BigSolDB 2.1
